target: GST-NbGlk1(82-244) (Nicotiana benthamiana)
Chain: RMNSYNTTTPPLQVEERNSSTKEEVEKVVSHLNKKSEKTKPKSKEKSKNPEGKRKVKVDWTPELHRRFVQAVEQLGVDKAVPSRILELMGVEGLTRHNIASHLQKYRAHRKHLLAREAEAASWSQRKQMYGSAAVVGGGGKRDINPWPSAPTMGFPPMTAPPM
methodNotes: protein-binding microarray; high values mean tight binding
measurementParameters: protein: recombinant; tags: GST (pTH6838); dsDNA, one strand shown
The full ranking holds about 16,000 sequences; the median of “e-score” is about -0.044, and the highest 2% start at about 0.38. This excerpt belongs to a sample that is enriched for the highest values.
Rule: binding signal below 0.3 E-score gives 1, anything at or above gives 0.

{"columns": ["sequenceEntry", "classLabel"],
 "data": [
  ["AATCCAGG", 0],
  ["ATCCGGGG", 1],
  ["AATCTTAG", 0],
  ["ATATAACA", 1],
  ["ATGATCTC", 1],
  ["ATCCTCAG", 1],
  ["AAAGCGAT", 1],
  ["ACGATACG", 1],
  ["AATCTTAA", 0]
]}

###

In this section we review reported binding signal values for a set of sequences.
target: GST-NbGlk1(82-244) (Nicotiana benthamiana)
Chain: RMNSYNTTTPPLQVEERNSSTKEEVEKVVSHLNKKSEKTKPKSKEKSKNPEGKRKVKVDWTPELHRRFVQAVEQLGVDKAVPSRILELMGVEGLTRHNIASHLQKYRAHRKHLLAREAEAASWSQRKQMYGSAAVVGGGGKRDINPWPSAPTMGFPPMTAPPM
methodNotes: protein-binding microarray; high values mean tight binding
measurementParameters: protein: recombinant; tags: GST (pTH6838); dsDNA, one strand shown
In all, about 16,000 sequences were measured (“e-score”: median about -0.044, highest 2% from about 0.38 on). Many of the other results were omitted from the sample, so the highest values are more common in it than they were.

{"columns": ["sequenceEntry", "unitsOfMeasure", "binding signal"],
 "data": [
  ["ATTACACC", "E-score", 0.334],
  ["ATATTGCC", "E-score", 0.249],
  ["AGATTGCC", "E-score", 0.448],
  ["AATCTCCC", "E-score", 0.387],
  ["AAATCTCC", "E-score", 0.439],
  ["ATCCGGAG", "E-score", 0.233],
  ["AATGATAT", "E-score", 0.224],
  ["ATCCGGAT", "E-score", 0.422],
  ["ATAACGTA", "E-score", 0.205],
  ["ATTTGCAC", "E-score", 0.305],
  ["ATCCGGAA", "E-score", 0.332],
  ["CAATCTCA", "E-score", 0.329],
  ["AATCGCCT", "E-score", 0.225],
  ["AATCCCCA", "E-score", 0.346]
]}

###

target: GST-NbGlk1(82-244) (Nicotiana benthamiana)
Chain: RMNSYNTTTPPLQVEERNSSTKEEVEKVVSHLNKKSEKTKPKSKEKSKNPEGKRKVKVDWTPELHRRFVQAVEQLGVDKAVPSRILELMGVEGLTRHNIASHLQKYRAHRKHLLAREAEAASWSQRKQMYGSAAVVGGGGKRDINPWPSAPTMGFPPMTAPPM
methodNotes: protein-binding microarray; NbGlk1 is a Golden2-like transcription factor of Nicotiana benthamiana; high values mean tight binding
measurementParameters: protein: recombinant; tags: GST (pTH6838); dsDNA, one strand shown
Whole data set: some 16,000 sequences, median “e-score” near -0.044, cut for the highest 2% near 0.38. The entries come from a sample that favours the highest values as a whole.
This listing pairs sequences with measured binding signal.

{"columns": ["sequenceEntry", "binding signal [E-score]"],
 "data": [
  ["AATCGGTA", 0.257],
  ["AATCACCG", 0.281],
  ["ATTCTGTA", 0.271],
  ["ATATAGAT", 0.352]
]}
